Tested on: DU145 human tumor cells
Test: Cell proliferation test (WST1), DU145
Assay type: cell-based
Conditions: DU-145, 96 hours treatment, read-out: Inhibitory concentration IC50
measurement.label: IC50 (µM)
Your answer should be a plain number; it is taken to be in µM.

Value of measured IC50 for the entry C=C1C(=O)O[C@H]2C[C@]3(C)O[C@H]3[C@@H]3O[C@@H]3C3=C[C@@H](OC3=O)[C@H]12 [Mikanolide, mikanolide] : 15
